# assay-target: EGFR L858R (Homo sapiens, UniProt P00533, L858R)
# Construct: purchased Carna Bio
# Sequence (P00533 25-1210 L858R): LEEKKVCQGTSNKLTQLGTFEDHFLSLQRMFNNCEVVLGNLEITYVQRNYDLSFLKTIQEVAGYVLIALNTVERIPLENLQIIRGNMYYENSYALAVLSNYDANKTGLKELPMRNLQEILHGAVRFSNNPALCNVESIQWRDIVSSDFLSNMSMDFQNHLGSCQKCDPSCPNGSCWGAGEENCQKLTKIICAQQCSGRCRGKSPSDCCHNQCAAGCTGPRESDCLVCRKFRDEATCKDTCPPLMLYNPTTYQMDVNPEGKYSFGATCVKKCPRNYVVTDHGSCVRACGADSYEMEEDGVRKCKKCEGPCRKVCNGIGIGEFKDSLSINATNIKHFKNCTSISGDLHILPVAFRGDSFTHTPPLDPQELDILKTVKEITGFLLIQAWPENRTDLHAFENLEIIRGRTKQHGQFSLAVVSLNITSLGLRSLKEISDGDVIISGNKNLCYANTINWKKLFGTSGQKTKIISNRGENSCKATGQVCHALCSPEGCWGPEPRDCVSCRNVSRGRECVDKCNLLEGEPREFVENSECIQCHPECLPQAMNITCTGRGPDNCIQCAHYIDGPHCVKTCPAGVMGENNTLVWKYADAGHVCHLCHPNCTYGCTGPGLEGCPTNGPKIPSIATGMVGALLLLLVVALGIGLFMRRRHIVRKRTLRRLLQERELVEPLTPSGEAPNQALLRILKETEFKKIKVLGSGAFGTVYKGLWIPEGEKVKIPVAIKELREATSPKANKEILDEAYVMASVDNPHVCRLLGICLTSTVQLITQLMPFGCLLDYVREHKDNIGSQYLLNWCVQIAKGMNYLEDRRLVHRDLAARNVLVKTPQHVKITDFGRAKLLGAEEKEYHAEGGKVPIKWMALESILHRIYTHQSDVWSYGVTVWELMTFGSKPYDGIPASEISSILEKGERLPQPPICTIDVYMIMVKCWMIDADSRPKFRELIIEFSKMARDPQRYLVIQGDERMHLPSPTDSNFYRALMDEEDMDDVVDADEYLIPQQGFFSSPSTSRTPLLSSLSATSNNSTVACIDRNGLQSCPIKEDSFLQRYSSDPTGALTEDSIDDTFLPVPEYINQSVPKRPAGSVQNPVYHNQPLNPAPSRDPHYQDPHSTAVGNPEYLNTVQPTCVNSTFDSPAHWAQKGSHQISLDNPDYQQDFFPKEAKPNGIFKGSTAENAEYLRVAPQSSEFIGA
# assay-protocol: Inhibition of EGFR L858R biochemical enzymatic activity (HTRF)
# condition-parameters: 1 mM ATP, 1 h at room temperature, read-out: IC50 @L858R
pIC50: −log10 of the molar value.
Entries annotated with measured pIC50

Guide cases for pIC50, answers given:
Ask: Form field - read-out: pIC50; system: EGFR L858R (Homo sapiens, UniProt P00533, L858R); submitted item: Cc1cc2cc(n1)-c1cnn(C)c1OCCN1CC3CCC(C3)(C1)n1c(nc3ccc(N4CC[C@@H](N(C)C)C4)cc31)NC2=O (single isomer, unassigned) [Example B42A]
Reply: < 5.30

Ask: Queued: Cc1cc2cc(n1)-c1cnn(C)c1OCCN1CC3CCC(C3)(C1)n1c(nc3ccc(N(C)CCCN(C)C)cc31)NC2=O (single isomer, unassigned) [Example B45A]
Reply: < 5.30

Next compound, pIC50 to be filled in.
Ask: Lab request: please report pIC50 under test system EGFR L858R (Homo sapiens, UniProt P00533, L858R) for Cc1cc2cc(n1)-c1cnn(C)c1OCCN1CC3CCC(C3)(C1)n1c(nc3ccc(N4CCC(N5CCOCC5)C4)cc31)NC2=O (single isomer, unassigned) [Example B44A]
Reply: < 5.30
